assay: Stability in rat plasma assessed as parent compound remaining measured after 2 hrs by LC-MS/MS analysis; format: ADME, cell-free; details: read-out: Stabilty
API: label(entry) gives True if the entry's remaining at 2 h is strictly smaller than 80%; on equality or larger values it gives False.

# count of solved cases: 6
>>> qualitative_label("CCOC(=O)[C@H](N)Cc1cn(C)c2ccccc12.Cl")
"True"
>>> qualitative_label("Cl.Cn1cc(C[C@@H](N)C(=O)OCc2ccccc2)c2ccccc21")
"True"
>>> qualitative_label("CC(C)C[C@H](N)C(=O)N[C@H](Cc1cn(C)c2ccccc12)C(=O)O.Cl")
"False"
>>> qualitative_label("Cl.Cn1cc(C[C@@H](N)C(=O)OCC(O)CO)c2ccccc21 (stereo partly drawn)")
"True"
>>> qualitative_label("CCOC(=O)[C@@H](Cc1cn(C)c2ccccc12)NC(=O)[C@@H](N)CCC(N)=O.Cl")
"True"
>>> qualitative_label("CC[C@H](C)[C@H](N)C(=O)N[C@H](Cc1cn(C)c2ccccc12)C(=O)O.Cl")
"True"

Proceed to the following item.
query: API: query returns whether the compound falls strictly under 80% in remaining at 2 h. Query: CCOC(=O)[C@@H](Cc1cn(C)c2ccccc12)NC(=O)[C@@H](N)Cc1ccccc1.Cl
result: True

---

experiment: AUC (0 to 24 hrs) in female cynomolgus monkey at 225 mg/kg, po measured on day 1; type: ADME, organism-based, Macaca fascicularis; set-up: time < 24 hr, route oral, dose 225 mg/kg; conditions: in vivo
OBSERVABLE: AUC(0-t) at 24 h (µM·h)
Give the value, in units of µM·h, as a plain number.

query: Quick one: AUC(0-t) at 24 h of Cn1cc(C[C@@H](N)C(=O)O)c2ccccc21 [INDOXIMOD] ?
result: 181

---

Below, each entry is listed alongside its reported Tmax.
experiment: Tmax in male cynomolgus monkey at 150 mg/kg, po BID measured on day 8; assay type: ADME, organism-based, Macaca fascicularis; conditions: in vivo
Your answer is read as h, so omit the unit and give the number.

The cases that follow already have their Tmax on record.
>>> assay_value("Cn1cc(C[C@@H](N)C(=O)O)c2ccccc21")
2
>>> assay_value("CCOC(=O)[C@@H](Cc1cn(C)c2ccccc12)NC(=O)[C@@H](N)CC(C)C.Cl")
2

query: For the molecule CC(C)C[C@H](N)C(=O)N[C@H](Cc1cn(C)c2ccccc12)C(=O)O , what Tmax is on record?
result: 1

---

assay: Solubility of the compound in FaSSIF; format: physicochemical
OBSERVABLE: solubility (mg/mL)
Reply with just the number (in mg/mL).

query: Which solubility is listed for CCOC(=O)[C@@H](Cc1cn(C)c2ccccc12)NC(=O)[C@@H](N)CC(C)C.Cl ?
result: 19.1

---

assay: Chemical stability of compound in simulated gastric fluid assessed as compound remaining at 5 uM measured after 24 hrs by LC-MS/MS analysis; type: ADME, physicochemical; conditions: read-out: Stabilty
Decision: remaining at 24 h, 5 µM beneath 80% gives satisfied; remaining at 24 h, 5 µM meeting or exceeding 80% gives not satisfied.

Consider the worked cases shown below.
>>> qualitative_label("Cl.Cn1cc(C[C@@H](NC(=O)[C@@H](N)CCC(=O)O)C(=O)O)c2ccccc21")
"not satisfied"
>>> qualitative_label("Cl.Cn1cc(C[C@@H](N)C(=O)N[C@H](Cc2cn(C)c3ccccc23)C(=O)O)c2ccccc21")
"satisfied"
>>> qualitative_label("Cl.Cn1cc(C[C@@H](NC(=O)[C@@H](N)CCC(N)=O)C(=O)O)c2ccccc21")
"not satisfied"
>>> qualitative_label("Cl.Cn1cc(C[C@@H](N)C(=O)OCC(O)CO)c2ccccc21 (some centres undefined)")
"satisfied"
>>> qualitative_label("Cl.Cn1cc(C[C@@H](N)C(=O)OCC(N)C(=O)O)c2ccccc21 (single isomer, unassigned)")
"satisfied"

query: Does CCOC(=O)[C@@H](Cc1cn(C)c2ccccc12)NC(=O)[C@@H](N)CC(C)C.Cl have remaining at 24 h, 5 µM strictly under 80%?
result: not satisfied

query: Decide: remaining at 24 h, 5 µM of CCOC(=O)[C@@H](Cc1cn(C)c2ccccc12)NC(=O)[C@@H](N)CCC(N)=O.Cl strictly below 80%?
result: not satisfied

query: Strictly below 80%: is that where remaining at 24 h, 5 µM of Cl.Cn1cc(C[C@@H](N)C(=O)OCCC2CCOCC2)c2ccccc21 sits?
result: satisfied

query: Does this compound meet the criterion remaining at 24 h, 5 µM < 80%? Cl.Cn1cc(C[C@@H](NC(=O)[C@@H](N)Cc2c[nH]c3ccccc23)C(=O)O)c2ccccc21
result: satisfied

---

experiment: Chemical stability of compound in 0.1 N aqueous HCl buffer assessed as compound remaining at pH 1 at 5 uM measured after 24 hrs by LC-MS/MS analysis; format: physicochemical; conditions: pH 1, 24 h
Each record is given condition met if its reported Stabilty is strictly below 90%. Records at or above 90% are given condition not met.

query: Is the reported Stabilty for Cl.Cn1cc(C[C@@H](N)C(=O)OCC(O)CO)c2ccccc21 (stereo not given in full) strictly below 90%?
result: condition not met

query: # strict comparison: is reported Stabilty < 90%? input = CC(C)C[C@H](N)C(=O)N[C@H](Cc1cn(C)c2ccccc12)C(=O)O.Cl
result: condition not met

---

Measured Activity, listed per entry.
test: Change in normalised AUC (infinity) in rat at 50 mg/kg, po measured upto 72 hrs by LC-MS/MS analysis; format: ADME, organism-based; conditions: in vivo
Hi, when you answer, please include the unit after the number. Thanks!

Previously resolved entries follow.
>>> assay_value("CCOC(=O)N[C@H](Cc1cn(C)c2ccccc12)C(=O)O")
"-83%"
>>> assay_value("CC(C)OC(=O)[C@H](N)Cc1cn(C)c2ccccc12.Cl")
"-21%"
>>> assay_value("Cl.Cn1cc(C[C@@H](N)C(=O)OCc2ccccc2)c2ccccc21")
"-22%"

query: Query (compound): Cn1cc(C[C@@H](NC(=O)OCC(C)(C)C)C(=O)O)c2ccccc21 ; field requested: Activity
result: -100%

query: Name the reported Activity value associated with the compound Cn1cc(C[C@@H](N)C(=O)O)c2ccccc21
result: 0%

query: Any idea what Activity was measured for CCOC(=O)[C@H](N)Cc1cn(C)c2ccccc12.Cl ?
result: 126%

---

assay: Cmax in human at 2400 mg administered bid; type: ADME; design: dose 2400 mg; conditions: in vivo
OBSERVABLE: Cmax (µM)
Just the number in µM, nothing appended.

query: Field request: Cmax | item: Cn1cc(C[C@@H](N)C(=O)O)c2ccccc21
result: 22

---

test: Cmax in mouse at 250 mg/kg administered bid; format: ADME, organism-based; parameters: dose 250 mg/kg; conditions: in vivo
OBSERVABLE: Cmax (µM)
Field format: number, assumed µM, no unit text.

query: GET /values?readout=Cmax&item= Cn1cc(C[C@@H](N)C(=O)O)c2ccccc21
result: 50

---

assay: AUC (0 to 24 hrs) in male cynomolgus monkey at 225 mg/kg, po measured on day 1; assay type: ADME, organism-based, Macaca fascicularis; parameters: time < 24 hr, route oral, dose 225 mg/kg; conditions: male, in vivo
OBSERVABLE: AUC(0-t) at 24 h (µM·h)
Provide the reading as a plain figure in µM·h.

>>> assay_value("Cn1cc(C[C@@H](N)C(=O)O)c2ccccc21 [INDOXIMOD]")
525

Alright, here's another molecule for you.
query: # query: AUC(0-t) at 24 h of entry CCOC(=O)[C@@H](Cc1cn(C)c2ccccc12)NC(=O)[C@@H](N)CC(C)C.Cl
result: 0.0602

---

experiment: Cmax in male cynomolgus monkey at 225 mg/kg, po measured on day 1; type: ADME, organism-based, Macaca fascicularis; parameters: route oral, dose 225 mg/kg; details: in vivo
OBSERVABLE: Cmax (nM)
API: value field is a number in nM; no unit string.

>>> assay_value("Cn1cc(C[C@@H](N)C(=O)O)c2ccccc21")
97700
>>> assay_value("CCOC(=O)[C@@H](Cc1cn(C)c2ccccc12)NC(=O)[C@@H](N)CC(C)C.Cl")
12.6

Let us move to another entry and its Cmax.
query: Suppose we examine the compound CC(C)C[C@H](N)C(=O)N[C@H](Cc1cn(C)c2ccccc12)C(=O)O ; what Cmax value has been reported?
result: 353

---

test: Apparent oral clearance in male cynomolgus monkey at 150 mg/kg, po BID measured on day 8; assay type: ADME, organism-based, Macaca fascicularis; details: in vivo
OBSERVABLE: CL/F (mL/min/kg)
Numeric answer only, unit mL/min/kg assumed.

query: Would you mind telling me what CL/F value was observed for Cn1cc(C[C@@H](N)C(=O)O)c2ccccc21 [INDOXIMOD] ?
result: 13.8
